Hey, just so you know, these numbers are from patent US7989629B2.

test: Rat pharmacokinetics; assay type: in vivo; conditions: male, CD Sprague Dawley, whole blood, po, 3 mg/kg
quantityKind: bioavailability

Tell me the measured bioavailability of CC1(C)CCCN(CCCOc2ccc(C3CCN(C(=O)c4ccc(CCC(=O)O)c5ccccc45)CC3)cc2)C1 [Example 1] , please.
~59%

###

assay: Rat pharmacokinetics; format: in vivo; conditions: male, CD Sprague Dawley, whole blood, 1 mg/kg, IV route
quantityKind: half-life

For the molecule CC1(C)CCCN(CCCOc2ccc(C3CCN(C(=O)c4ccc(CCC(=O)O)c5ccccc45)CC3)cc2)C1 [Example 1] , what half-life is on record?
4 to 5 h
